Below is a list of entries, each paired with its recorded melting point value.

compound.smiles: COc1cc(/C=C/C(=O)CC(=O)/C=C/c2cncc(C(F)(F)F)c2)ccc1O
melting point: 187 to 189 °C
--
compound.smiles: COc1cc(/C=C/C(=O)CC(=O)/C=C/c2ccc(O)c(C(F)(F)F)c2)ccc1O
melting point: 200 °C
--
compound.smiles: N#CCCC(C(=O)/C=C/c1ccc(O)c(OC(F)(F)F)c1)C(=O)/C=C/c1ccc(O)c(OC(F)(F)F)c1
melting point: 134 to 135 °C
--
compound.smiles: CC(C)OC(=O)CCC(C(=O)/C=C/c1ccc(O)c(OC(F)(F)F)c1)C(=O)/C=C/c1ccc(O)c(OC(F)(F)F)c1
melting point: 191 °C
--
compound.smiles: COC(=O)CCCC(C(=O)/C=C/c1ccc(O)c(OC(F)(F)F)c1)C(=O)/C=C/c1ccc(O)c(OC(F)(F)F)c1
melting point: 147 to 148 °C
--
compound.smiles: COC(=O)CCC(C(=O)/C=C/c1cc(F)c(O)c(F)c1)C(=O)/C=C/c1cc(F)c(O)c(F)c1
melting point: 178 to 179 °C
--
compound.smiles: COC(=O)COc1ccc(/C=C/C(=O)CC(=O)/C=C/c2ccc(O)c(OC)c2)cc1OC
melting point: 88 to 90 °C

###

compounds and their reported melting point

compound: COC(=O)CC(C(=O)/C=C/c1ccc(O)c(OC(F)(F)F)c1)C(=O)/C=C/c1ccc(O)c(OC(F)(F)F)c1 [Compound 5]
melting point: 140 to 141 °C

compound: COC(=O)CCC(C(=O)C=Cc1ccc(OC(C)=O)c(OC(F)(F)F)c1)C(=O)C=Cc1ccc(OC(C)=O)c(OC(F)(F)F)c1 (stereo not shown) [Compound 17]
melting point: 149 to 150 °C

compound: CN(C)C(=O)CCC(C(=O)/C=C/c1ccc(O)c(OC(F)(F)F)c1)C(=O)/C=C/c1ccc(O)c(OC(F)(F)F)c1 [Compound 21]
melting point: 192 to 193 °C

compound: CC(=O)OCCCC(C(=O)/C=C/c1ccc(O)c(OC(F)(F)F)c1)C(=O)/C=C/c1ccc(O)c(OC(F)(F)F)c1 [Compound 13]
melting point: 130 to 131 °C

compound: O=C(/C=C/c1ccc(O)c(OC(F)(F)F)c1)CC(=O)/C=C/c1ccc(O)c(OC(F)(F)F)c1 [Compound 23]
melting point: 172 to 173 °C

compound: CNc1ccc(/C=C/C(=O)CC(=O)/C=C/c2ccc(NC)c(C(F)(F)F)c2)cc1C(F)(F)F [Compound 28]
melting point: 192 to 194 °C

compound: COc1cc(/C=C/C(=O)CC(=O)/C=C/c2ccc(OCC(=O)O)c(OC)c2)ccc1O [Compound 26]
melting point: 190 to 192 °C (dec.)

###

Let's look at some compounds and their measured IC50.
molecular target: amyloid β peptide aggregates (1-40) (Homo sapiens (Human), UniProt P05067); details: aggregates 1 μM, thioflavin-T 3 μM, compound 0.02 to 20 μM, 30 minutes at 23° C., pH 7.4; read-out: Amyloid binding property (IC50)
Sequence (P05067 672-711): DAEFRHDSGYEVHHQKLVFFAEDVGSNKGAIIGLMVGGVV

compound.smiles: COc1cc(/C=C/C(=O)CC(=O)/C=C/c2ccc(OCC(=O)O)c(OC)c2)ccc1O
target.or.system: amyloid β peptide aggregates (1-40) (Homo sapiens (Human), UniProt P05067)
IC50 (nM): 310

compound.smiles: O=C(/C=C/c1ccc(O)c(OC(F)(F)F)c1)CC(=O)/C=C/c1ccc(O)c(OC(F)(F)F)c1
target.or.system: amyloid β peptide aggregates (1-40) (Homo sapiens (Human), UniProt P05067)
IC50 (nM): 210

compound.smiles: CCOC(=O)C(C(=O)/C=C/c1ccc(O)c(OC(F)(F)F)c1)C(=O)/C=C/c1ccc(O)c(OC(F)(F)F)c1
target.or.system: amyloid β peptide aggregates (1-40) (Homo sapiens (Human), UniProt P05067)
IC50 (nM): 140

compound.smiles: CC(C(=O)/C=C/c1ccc(O)c(OC(F)(F)F)c1)C(=O)/C=C/c1ccc(O)c(OC(F)(F)F)c1
target.or.system: amyloid β peptide aggregates (1-40) (Homo sapiens (Human), UniProt P05067)
IC50 (nM): 320

compound.smiles: CCOC(=O)CCC(C(=O)/C=C/c1ccc(O)c(OC(F)(F)F)c1)C(=O)/C=C/c1ccc(O)c(OC(F)(F)F)c1
target.or.system: amyloid β peptide aggregates (1-40) (Homo sapiens (Human), UniProt P05067)
IC50 (nM): 380

compound.smiles: COC(=O)COc1ccc(/C=C/C(=O)CC(=O)/C=C/c2ccc(O)c(OC)c2)cc1OC
target.or.system: amyloid β peptide aggregates (1-40) (Homo sapiens (Human), UniProt P05067)
IC50 (nM): 140

compound.smiles: COC(=O)CCC(C(=O)/C=C/c1ccc(O)c(OC(F)(F)F)c1)C(=O)/C=C/c1ccc(O)c(OC(F)(F)F)c1
target.or.system: amyloid β peptide aggregates (1-40) (Homo sapiens (Human), UniProt P05067)
IC50 (nM): 440

compound.smiles: COc1cc(/C=C/C(=O)CC(=O)/C=C/c2ccc(O)c(C(F)(F)F)c2)ccc1O
target.or.system: amyloid β peptide aggregates (1-40) (Homo sapiens (Human), UniProt P05067)
IC50 (nM): 130

compound.smiles: CN(C)C(=O)CCC(C(=O)/C=C/c1ccc(O)c(OC(F)(F)F)c1)C(=O)/C=C/c1ccc(O)c(OC(F)(F)F)c1
target.or.system: amyloid β peptide aggregates (1-40) (Homo sapiens (Human), UniProt P05067)
IC50 (nM): 500

compound.smiles: CNc1ccc(/C=C/C(=O)CC(=O)/C=C/c2ccc(NC)c(C(F)(F)F)c2)cc1C(F)(F)F
target.or.system: amyloid β peptide aggregates (1-40) (Homo sapiens (Human), UniProt P05067)
IC50 (nM): 5800

compound.smiles: COc1cc(/C=C/C(=O)CC(=O)/C=C/c2cncc(C(F)(F)F)c2)ccc1O
target.or.system: amyloid β peptide aggregates (1-40) (Homo sapiens (Human), UniProt P05067)
IC50 (nM): 100

compound.smiles: CC(C)(C)OC(=O)CCC(C(=O)/C=C/c1ccc(O)c(OC(F)(F)F)c1)C(=O)/C=C/c1ccc(O)c(OC(F)(F)F)c1
target.or.system: amyloid β peptide aggregates (1-40) (Homo sapiens (Human), UniProt P05067)
IC50 (nM): 650

compound.smiles: N#CCCC(C(=O)/C=C/c1ccc(O)c(OC(F)(F)F)c1)C(=O)/C=C/c1ccc(O)c(OC(F)(F)F)c1
target.or.system: amyloid β peptide aggregates (1-40) (Homo sapiens (Human), UniProt P05067)
IC50 (nM): 300

compound.smiles: COCOCCCC(C(=O)/C=C/c1ccc(O)c(OC(F)(F)F)c1)C(=O)/C=C/c1ccc(O)c(OC(F)(F)F)c1
target.or.system: amyloid β peptide aggregates (1-40) (Homo sapiens (Human), UniProt P05067)
IC50 (nM): 500
